# System: RARg homodimer (NR concentration 270 nM)
# experimental protocol: PBM binding z-score (relative to random genomic background probes); higher = stronger binding; sequences stand for … in GC…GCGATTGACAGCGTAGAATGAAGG
Please respond with reported PBM binding z-score for every item in the list.
Lab note: jot the number down without any unit.

**Query** Quick check: PBM binding z-score of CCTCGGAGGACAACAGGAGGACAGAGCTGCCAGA ?
**Result** 1.41

**Query** Quick check: PBM binding z-score of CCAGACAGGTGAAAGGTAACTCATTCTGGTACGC ?
**Result** 0.877

**Query** Quick check: PBM binding z-score of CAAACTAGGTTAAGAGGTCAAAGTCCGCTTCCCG ?
**Result** 5.15

**Query** Quick check: PBM binding z-score of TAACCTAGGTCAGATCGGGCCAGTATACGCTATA ?
**Result** 3.68

**Query** Quick check: PBM binding z-score of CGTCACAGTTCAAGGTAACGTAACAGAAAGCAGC ?
**Result** 2.53

**Query** Quick check: PBM binding z-score of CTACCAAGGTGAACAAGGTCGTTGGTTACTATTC ?
**Result** 1.29

**Query** Quick check: PBM binding z-score of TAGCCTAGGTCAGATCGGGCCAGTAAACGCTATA ?
**Result** 3.21

**Query** Quick check: PBM binding z-score of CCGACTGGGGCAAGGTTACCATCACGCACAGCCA ?
**Result** 1.33

**Query** Quick check: PBM binding z-score of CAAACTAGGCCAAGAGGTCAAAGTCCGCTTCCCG ?
**Result** 5.21

**Query** Quick check: PBM binding z-score of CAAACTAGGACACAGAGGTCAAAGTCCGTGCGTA ?
**Result** 5.17

**Query** Quick check: PBM binding z-score of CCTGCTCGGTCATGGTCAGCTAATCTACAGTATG ?
**Result** 2.66

**Query** Quick check: PBM binding z-score of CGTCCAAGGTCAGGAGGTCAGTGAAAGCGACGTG ?
**Result** 7.08

====

# System: PPARg:RXRa 90nM:30nM, anti-RXR (NR concentration 90 nM, RXRa partner concentration 30 nM)
# experimental protocol: PBM binding z-score (relative to random genomic background probes); higher = stronger binding; sequences stand for … in GC…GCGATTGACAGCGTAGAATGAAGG
Binary classification by PBM binding z-score, with 2 as an inclusive lower bound for met; all other cases are not met.

**Query** Reported PBM binding z-score at or above 2? CTACCAAGGTGAACAAGGTCGTTGACTACTATTC
**Result** not met

**Query** Reported PBM binding z-score at or above 2? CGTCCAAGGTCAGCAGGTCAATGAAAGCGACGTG
**Result** met

**Query** Reported PBM binding z-score at or above 2? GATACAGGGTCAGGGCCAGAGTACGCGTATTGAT
**Result** met

**Query** Reported PBM binding z-score at or above 2? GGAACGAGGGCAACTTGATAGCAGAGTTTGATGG
**Result** not met

**Query** Reported PBM binding z-score at or above 2? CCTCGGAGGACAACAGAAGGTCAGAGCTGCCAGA
**Result** not met

**Query** Reported PBM binding z-score at or above 2? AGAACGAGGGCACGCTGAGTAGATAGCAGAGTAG
**Result** not met

**Query** Reported PBM binding z-score at or above 2? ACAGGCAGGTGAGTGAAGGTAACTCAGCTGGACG
**Result** not met

**Query** Reported PBM binding z-score at or above 2? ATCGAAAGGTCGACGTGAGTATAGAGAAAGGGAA
**Result** met

**Query** Reported PBM binding z-score at or above 2? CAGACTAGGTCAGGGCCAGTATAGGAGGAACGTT
**Result** met

**Query** Reported PBM binding z-score at or above 2? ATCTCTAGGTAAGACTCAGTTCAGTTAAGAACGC
**Result** not met

**Query** Reported PBM binding z-score at or above 2? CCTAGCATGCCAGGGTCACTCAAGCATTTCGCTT
**Result** not met

**Query** Reported PBM binding z-score at or above 2? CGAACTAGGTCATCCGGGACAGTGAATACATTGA
**Result** met

**Query** Reported PBM binding z-score at or above 2? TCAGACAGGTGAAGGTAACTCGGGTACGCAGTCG
**Result** met

**Query** Reported PBM binding z-score at or above 2? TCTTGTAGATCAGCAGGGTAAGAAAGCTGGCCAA
**Result** not met

**Query** Reported PBM binding z-score at or above 2? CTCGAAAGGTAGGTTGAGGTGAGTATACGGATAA
**Result** not met

**Query** Reported PBM binding z-score at or above 2? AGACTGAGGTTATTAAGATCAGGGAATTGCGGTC
**Result** not met

**Query** Reported PBM binding z-score at or above 2? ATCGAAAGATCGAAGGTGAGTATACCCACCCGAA
**Result** not met

**Query** Reported PBM binding z-score at or above 2? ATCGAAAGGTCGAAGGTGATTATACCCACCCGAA
**Result** met

**Query** Reported PBM binding z-score at or above 2? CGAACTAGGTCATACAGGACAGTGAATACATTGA
**Result** met

**Query** Reported PBM binding z-score at or above 2? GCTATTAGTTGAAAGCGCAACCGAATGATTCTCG
**Result** not met

**Query** Reported PBM binding z-score at or above 2? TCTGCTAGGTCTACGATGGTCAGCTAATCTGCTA
**Result** not met

**Query** Reported PBM binding z-score at or above 2? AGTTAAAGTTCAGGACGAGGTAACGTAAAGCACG
**Result** met

**Query** Reported PBM binding z-score at or above 2? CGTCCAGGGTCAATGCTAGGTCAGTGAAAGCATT
**Result** met

**Query** Reported PBM binding z-score at or above 2? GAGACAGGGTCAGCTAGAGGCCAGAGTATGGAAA
**Result** not met

**Query** Reported PBM binding z-score at or above 2? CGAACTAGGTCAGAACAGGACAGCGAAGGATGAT
**Result** met

**Query** Reported PBM binding z-score at or above 2? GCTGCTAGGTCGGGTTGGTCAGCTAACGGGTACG
**Result** not met

**Query** Reported PBM binding z-score at or above 2? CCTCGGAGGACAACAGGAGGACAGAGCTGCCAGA
**Result** not met

**Query** Reported PBM binding z-score at or above 2? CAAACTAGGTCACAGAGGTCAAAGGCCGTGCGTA
**Result** met

**Query** Reported PBM binding z-score at or above 2? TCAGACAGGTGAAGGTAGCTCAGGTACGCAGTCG
**Result** met

**Query** Reported PBM binding z-score at or above 2? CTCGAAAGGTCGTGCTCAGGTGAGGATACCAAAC
**Result** met

**Query** Reported PBM binding z-score at or above 2? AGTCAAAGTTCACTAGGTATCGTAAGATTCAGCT
**Result** met

**Query** Reported PBM binding z-score at or above 2? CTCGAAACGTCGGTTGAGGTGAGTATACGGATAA
**Result** not met

**Query** Reported PBM binding z-score at or above 2? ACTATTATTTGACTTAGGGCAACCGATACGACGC
**Result** not met

**Query** Reported PBM binding z-score at or above 2? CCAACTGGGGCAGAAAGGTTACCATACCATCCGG
**Result** met

**Query** Reported PBM binding z-score at or above 2? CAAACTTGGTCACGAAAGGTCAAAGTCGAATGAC
**Result** met

**Query** Reported PBM binding z-score at or above 2? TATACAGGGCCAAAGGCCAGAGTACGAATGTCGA
**Result** met

**Query** Reported PBM binding z-score at or above 2? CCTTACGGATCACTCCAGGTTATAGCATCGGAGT
**Result** not met

**Query** Reported PBM binding z-score at or above 2? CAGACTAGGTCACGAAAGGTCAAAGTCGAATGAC
**Result** met

**Query** Reported PBM binding z-score at or above 2? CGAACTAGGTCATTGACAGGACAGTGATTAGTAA
**Result** met

**Query** Reported PBM binding z-score at or above 2? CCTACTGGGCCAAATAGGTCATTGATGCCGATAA
**Result** met

**Query** Reported PBM binding z-score at or above 2? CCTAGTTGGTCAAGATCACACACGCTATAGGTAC
**Result** not met

**Query** Reported PBM binding z-score at or above 2? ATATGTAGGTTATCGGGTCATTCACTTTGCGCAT
**Result** met

**Query** Reported PBM binding z-score at or above 2? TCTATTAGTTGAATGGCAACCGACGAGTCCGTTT
**Result** met

**Query** Reported PBM binding z-score at or above 2? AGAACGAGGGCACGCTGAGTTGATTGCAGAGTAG
**Result** not met

**Query** Reported PBM binding z-score at or above 2? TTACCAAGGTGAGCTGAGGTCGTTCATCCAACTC
**Result** not met

**Query** Reported PBM binding z-score at or above 2? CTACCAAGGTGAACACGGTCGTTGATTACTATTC
**Result** not met

**Query** Reported PBM binding z-score at or above 2? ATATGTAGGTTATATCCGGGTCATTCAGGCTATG
**Result** met

**Query** Reported PBM binding z-score at or above 2? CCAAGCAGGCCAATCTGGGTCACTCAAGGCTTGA
**Result** not met

**Query** Reported PBM binding z-score at or above 2? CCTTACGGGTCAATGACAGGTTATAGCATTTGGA
**Result** met

**Query** Reported PBM binding z-score at or above 2? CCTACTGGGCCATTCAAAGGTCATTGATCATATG
**Result** met
